Biological target: Potassium voltage-gated channel subfamily A member 5 (Homo sapiens)
Sequence (P22460 whole entry): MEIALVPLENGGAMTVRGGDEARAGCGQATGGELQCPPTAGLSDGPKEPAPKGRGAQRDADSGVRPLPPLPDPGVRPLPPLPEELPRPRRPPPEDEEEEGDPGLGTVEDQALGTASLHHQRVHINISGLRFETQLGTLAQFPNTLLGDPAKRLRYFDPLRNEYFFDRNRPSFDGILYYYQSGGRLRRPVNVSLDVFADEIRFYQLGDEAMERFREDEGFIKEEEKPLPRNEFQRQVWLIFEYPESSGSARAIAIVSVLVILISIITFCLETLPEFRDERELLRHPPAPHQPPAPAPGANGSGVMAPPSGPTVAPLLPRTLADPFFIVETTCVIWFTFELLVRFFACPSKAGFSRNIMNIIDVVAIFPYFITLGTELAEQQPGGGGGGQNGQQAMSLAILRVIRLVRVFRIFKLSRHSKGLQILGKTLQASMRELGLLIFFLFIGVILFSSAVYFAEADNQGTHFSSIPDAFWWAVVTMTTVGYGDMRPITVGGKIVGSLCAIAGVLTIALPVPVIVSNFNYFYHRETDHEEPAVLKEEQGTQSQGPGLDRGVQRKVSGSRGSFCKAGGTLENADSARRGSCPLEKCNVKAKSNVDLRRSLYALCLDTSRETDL
Assay: Inhibition of human Kv1.5 channel expressed in mouse L929 cells
This section presents molecules with their documented IC50 values.

Use these answered entries as a reference point.
| COMPOUND_STRUCTURE | TESTED_ON | IC50 |
| --- | --- | --- |
| COc1ccc(S(=O)(=O)N[C@@H]2c3cc(C(=O)NCCc4ccccc4)ccc3OC(C)(C)[C@H]2O)cc1 | Potassium voltage-gated channel subfamily A member 5 (Homo sapiens) | > 1 µM |
| CC1(C)Oc2ccc(C(=O)NCCc3ccccc3)cc2[C@@H](NS(=O)(=O)c2ccc(F)cc2)[C@@H]1O | Potassium voltage-gated channel subfamily A member 5 (Homo sapiens) | > 1 µM |
| CC1(C)Oc2ccc(C(=O)NCCc3ccccc3)cc2[C@@H](NS(=O)(=O)c2ccc([N+](=O)[O-])cc2)[C@@H]1O | Potassium voltage-gated channel subfamily A member 5 (Homo sapiens) | > 1 µM |
| CC1(C)Oc2ccc(C(=O)NCCc3ccccc3)cc2[C@@H](NS(=O)(=O)c2ccccc2)[C@@H]1O | Potassium voltage-gated channel subfamily A member 5 (Homo sapiens) | > 1 µM |
| CCc1ccc(S(=O)(=O)N[C@@H]2c3cc(C(=N)NCCc4ccccc4)ccc3OC(C)(C)[C@H]2O)cc1 | Potassium voltage-gated channel subfamily A member 5 (Homo sapiens) | > 10 µM |
| CCc1ccc(S(=O)(=O)N[C@@H]2c3cc(C(=O)Nc4cccc(OC)c4)ccc3OC(C)(C)[C@H]2O)cc1 | Potassium voltage-gated channel subfamily A member 5 (Homo sapiens) | > 10 µM |

Moving on to the next molecule.
Please supply the value of reported IC50 for the item "CCc1ccc(S(=O)(=O)N[C@@H]2c3cc(C(=O)NCCc4c[nH]cn4)ccc3OC(C)(C)[C@H]2O)cc1"
> 10 µM
